- target of assay: T1, Vasoactive intestinal peptide receptor 2 (VIPR2), human, on the human VIPR2-expressing cell line (Catalog No. … (human, UniProt P41587 24-438))
- T1 construct: whole, on cells; also called VPAC2; VIPR2-expressing cells
- T1 sequence (looked up): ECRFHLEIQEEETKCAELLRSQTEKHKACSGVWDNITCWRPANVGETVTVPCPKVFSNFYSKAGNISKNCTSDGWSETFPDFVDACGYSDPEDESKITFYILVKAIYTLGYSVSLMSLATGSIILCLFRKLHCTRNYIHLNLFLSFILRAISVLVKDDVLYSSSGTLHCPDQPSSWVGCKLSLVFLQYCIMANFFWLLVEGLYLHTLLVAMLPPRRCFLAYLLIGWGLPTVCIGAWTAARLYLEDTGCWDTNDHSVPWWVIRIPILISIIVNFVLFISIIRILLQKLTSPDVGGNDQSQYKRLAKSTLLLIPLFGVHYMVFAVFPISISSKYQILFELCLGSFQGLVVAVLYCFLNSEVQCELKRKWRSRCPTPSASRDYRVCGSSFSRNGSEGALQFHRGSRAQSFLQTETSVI
- assay name: summary of the Examples (binding to VIPR2-expressing cells)
Bridges are numbered along the chain shown (N, C = ends). [ ]: non-standard residue; d: D form. Mpa = O=C(O)CCS
outcome measure: binding result

INPUT: Give the reported value of binding result for this record: XYLPKYLCDLI (Mpa at position 1; NmeTyr at position 2; thioether bridge via DIPen (1,5-diiodopentane) linker (1-8); side-chain amide(5-9) between Lys5 and Asp9; C-terminal amide (NH2), Synthetic bicyclic peptide) [Seq-3]
OUTPUT: binds

INPUT: Identify measured binding result corresponding to [Mpa]PPYLPKYLCDLI-NH2 (disulfide 1-10; lactam 7-11; SMILES CC[C@H](C)[C@H](NC(=O)[C@H](CC(C)C)NC(=O)[C@@H]1CC(=O)NCCCC[C@@H]2NC(=O)[C@@H]3CCCN3C(=O)[C@H](CC(C)C)NC(=O)[C@H](Cc3ccc(O)cc3)NC(=O)[C@@H]3CCCN3C(=O)[C@@H]3CCCN3C(=O)CCSSC[C@H](NC(=O)[C@H](CC(C)C)NC(=O)[C@H](Cc3ccc(O)cc3)NC2=O)C(=O)N1)C(N)=O, Synthetic bicyclic peptide derived from VIpep-3) [Seq-1]
OUTPUT: binds
